apoptotic fraction of cells reference
test system: RVH421; experiment: apoptotic fraction of cells (caspase-3 NucView488 positive); higher = more apoptosis; details: 72 h; 0.00316 µM
Give only the figure.

The following compounds have reported results that may help.
compoundStructureString	apoptotic fraction of cells
CCCS(=O)(=O)Nc1ccc(F)c(C(=O)c2c[nH]c3ncc(-c4ccc(Cl)cc4)cc23)c1F	0.0342
Cc1ccc(NC(=O)c2cccc(C(C)(C)C#N)c2)cc1Nc1ccc2ncn(C)c(=O)c2c1	0.0338
CN(C)CCOc1ccc(-c2nc(-c3ccncc3)c(-c3ccc4c(c3)CC/C4=N\O)[nH]2)cc1	0.0342
CCCS(=O)(=O)Nc1ccc(F)c(C(=O)c2c[nH]c3ncc(Cl)cc23)c1F	0.0342

Consider the additional compound presented here.
// apoptotic fraction of cells lookup, compound = Cn1cnc2c(F)c(Nc3ccc(Br)cc3Cl)c(C(=O)NOCCO)cc21 , result: 0.0328

###

# apoptotic fraction of cells per record follows
test system: C32; assay: apoptotic fraction of cells (caspase-3 NucView488 positive); higher = more apoptosis; details: 72 h; 3.16 µM
Enter a number only.

Worked examples, 4 compounds total:
compoundStructureString	valueKind	observed
CCCS(=O)(=O)Nc1ccc(F)c(C(=O)c2c[nH]c3ncc(Cl)cc23)c1F	apoptotic fraction of cells	0.813
CCCS(=O)(=O)Nc1ccc(F)c(C(=O)c2c[nH]c3ncc(-c4ccc(Cl)cc4)cc23)c1F	apoptotic fraction of cells	0.928
CN(C)CCOc1ccc(-c2nc(-c3ccncc3)c(-c3ccc4c(c3)CC/C4=N\O)[nH]2)cc1	apoptotic fraction of cells	0.542
Cn1cnc2c(F)c(Nc3ccc(Br)cc3Cl)c(C(=O)NOCCO)cc21	apoptotic fraction of cells	0.862

Observed apoptotic fraction of cells, C32, Cc1ccc(NC(=O)c2cccc(C(C)(C)C#N)c2)cc1Nc1ccc2ncn(C)c(=O)c2c1 : 0.941

###

tested on: WM1552C; assay: apoptotic fraction of cells (caspase-3 NucView488 positive); higher = more apoptosis; settings: 48 h; 0.1 µM
The entries below come with measured apoptotic fraction of cells values attached.
Simply state the number, no unit and no words.

Please review the entries below; each comes with its answer.
compoundStructureString	valueKind	observed
Cc1ccc(NC(=O)c2cccc(C(C)(C)C#N)c2)cc1Nc1ccc2ncn(C)c(=O)c2c1	apoptotic fraction of cells	0.0329
CN(C)CCOc1ccc(-c2nc(-c3ccncc3)c(-c3ccc4c(c3)CC/C4=N\O)[nH]2)cc1	apoptotic fraction of cells	0.067

Lab book: apoptotic fraction of cells of CCCS(=O)(=O)Nc1ccc(F)c(C(=O)c2c[nH]c3ncc(-c4ccc(Cl)cc4)cc23)c1F noted as 0.0684

Lab book: apoptotic fraction of cells of CCCS(=O)(=O)Nc1ccc(F)c(C(=O)c2c[nH]c3ncc(Cl)cc23)c1F noted as 0.0534

Lab note: measured apoptotic fraction of cells of Cn1cnc2c(F)c(Nc3ccc(Br)cc3Cl)c(C(=O)NOCCO)cc21 was 0.0656

###

# relative viability annotations
system: C32; assay: relative viability (cell count relative to DMSO-treated control) (fraction of DMSO control); higher = more viable cells / less drug effect; settings: 24 h; 3.16 µM
Hey, just send me the number, nothing else.

Reference set, count: 4
compoundStructureString	targetOrSystem	observed
CN(C)CCOc1ccc(-c2nc(-c3ccncc3)c(-c3ccc4c(c3)CC/C4=N\O)[nH]2)cc1	C32	0.779
CCCS(=O)(=O)Nc1ccc(F)c(C(=O)c2c[nH]c3ncc(-c4ccc(Cl)cc4)cc23)c1F	C32	0.637
Cc1ccc(NC(=O)c2cccc(C(C)(C)C#N)c2)cc1Nc1ccc2ncn(C)c(=O)c2c1	C32	0.877
CCCS(=O)(=O)Nc1ccc(F)c(C(=O)c2c[nH]c3ncc(Cl)cc23)c1F	C32	0.693

Shift focus to the following entry.
Item: Cn1cnc2c(F)c(Nc3ccc(Br)cc3Cl)c(C(=O)NOCCO)cc21 | System: C32 | relative viability: 0.811

###

tested on: WM1552C; test: apoptotic fraction of cells (caspase-3 NucView488 positive); higher = more apoptosis; details: 72 h; 0.316 µM
valueKind: apoptotic fraction of cells
Enter a number only.

// worked examples, apoptotic fraction of cells included
compoundStructureString	apoptotic fraction of cells
CCCS(=O)(=O)Nc1ccc(F)c(C(=O)c2c[nH]c3ncc(-c4ccc(Cl)cc4)cc23)c1F	0.0671
CN(C)CCOc1ccc(-c2nc(-c3ccncc3)c(-c3ccc4c(c3)CC/C4=N\O)[nH]2)cc1	0.0685
CCCS(=O)(=O)Nc1ccc(F)c(C(=O)c2c[nH]c3ncc(Cl)cc23)c1F	0.0671

The compound identified as Cn1cnc2c(F)c(Nc3ccc(Br)cc3Cl)c(C(=O)NOCCO)cc21 registered its apoptotic fraction of cells at 0.104

Entry Cc1ccc(NC(=O)c2cccc(C(C)(C)C#N)c2)cc1Nc1ccc2ncn(C)c(=O)c2c1 , apoptotic fraction of cells reported as 0.134

###

test system: RVH421; assay: apoptotic fraction of cells (caspase-3 NucView488 positive); higher = more apoptosis; conditions: 72 h; 0.1 µM
Measured apoptotic fraction of cells values are reported for all entries that follow.

// apoptotic fraction of cells value for CCCS(=O)(=O)Nc1ccc(F)c(C(=O)c2c[nH]c3ncc(Cl)cc23)c1F : 0.0375

Lab book: apoptotic fraction of cells of CCCS(=O)(=O)Nc1ccc(F)c(C(=O)c2c[nH]c3ncc(-c4ccc(Cl)cc4)cc23)c1F noted as 0.0335

Consider Cn1cnc2c(F)c(Nc3ccc(Br)cc3Cl)c(C(=O)NOCCO)cc21 . Its measured apoptotic fraction of cells is 0.0418

Entry CN(C)CCOc1ccc(-c2nc(-c3ccncc3)c(-c3ccc4c(c3)CC/C4=N\O)[nH]2)cc1 — recorded apoptotic fraction of cells = 0.044

Please fill in: apoptotic fraction of cells reported for Cc1ccc(NC(=O)c2cccc(C(C)(C)C#N)c2)cc1Nc1ccc2ncn(C)c(=O)c2c1 = 0.0442

###

test system: COLO858; test: relative viability (cell count relative to DMSO-treated control) (fraction of DMSO control); higher = more viable cells / less drug effect; details: 72 h; 0.0316 µM
Each entry below carries its recorded relative viability.

Solved entries (count: 4):
compoundStructureString	relative viability
Cc1ccc(NC(=O)c2cccc(C(C)(C)C#N)c2)cc1Nc1ccc2ncn(C)c(=O)c2c1	0.716
Cn1cnc2c(F)c(Nc3ccc(Br)cc3Cl)c(C(=O)NOCCO)cc21	0.843
CCCS(=O)(=O)Nc1ccc(F)c(C(=O)c2c[nH]c3ncc(Cl)cc23)c1F	1.19
CCCS(=O)(=O)Nc1ccc(F)c(C(=O)c2c[nH]c3ncc(-c4ccc(Cl)cc4)cc23)c1F	1.31

Please turn your attention to the following entry.
Reported relative viability ( CN(C)CCOc1ccc(-c2nc(-c3ccncc3)c(-c3ccc4c(c3)CC/C4=N\O)[nH]2)cc1 ) = 0.906

###

relative viability for assorted compounds
test system: C32; assay: relative viability (cell count relative to DMSO-treated control) (fraction of DMSO control); higher = more viable cells / less drug effect; settings: 48 h; 1 µM
Please respond with just the number, no unit label.

The examples below pair each entry with its known result.
compoundStructureString	relative viability
CN(C)CCOc1ccc(-c2nc(-c3ccncc3)c(-c3ccc4c(c3)CC/C4=N\O)[nH]2)cc1	0.551
CCCS(=O)(=O)Nc1ccc(F)c(C(=O)c2c[nH]c3ncc(Cl)cc23)c1F	0.454
Cn1cnc2c(F)c(Nc3ccc(Br)cc3Cl)c(C(=O)NOCCO)cc21	0.322
CCCS(=O)(=O)Nc1ccc(F)c(C(=O)c2c[nH]c3ncc(-c4ccc(Cl)cc4)cc23)c1F	0.551

Record Cc1ccc(NC(=O)c2cccc(C(C)(C)C#N)c2)cc1Nc1ccc2ncn(C)c(=O)c2c1 . Reported relative viability: 0.109

###

# apoptotic fraction of cells listing for each entry below
tested on: WM1552C; assay: apoptotic fraction of cells (caspase-3 NucView488 positive); higher = more apoptosis; conditions: 72 h; 0.0316 µM

Known results for compounds:
compound	apoptotic fraction of cells
Cn1cnc2c(F)c(Nc3ccc(Br)cc3Cl)c(C(=O)NOCCO)cc21 [Selumetinib]	0.0737
CCCS(=O)(=O)Nc1ccc(F)c(C(=O)c2c[nH]c3ncc(-c4ccc(Cl)cc4)cc23)c1F [Vemurafenib]	0.0733
CN(C)CCOc1ccc(-c2nc(-c3ccncc3)c(-c3ccc4c(c3)CC/C4=N\O)[nH]2)cc1	0.0679
Cc1ccc(NC(=O)c2cccc(C(C)(C)C#N)c2)cc1Nc1ccc2ncn(C)c(=O)c2c1 [AZ628]	0.0827

Consider the record given below.
What the record says about CCCS(=O)(=O)Nc1ccc(F)c(C(=O)c2c[nH]c3ncc(Cl)cc23)c1F [PLX4720] : apoptotic fraction of cells is 0.0682

###

system: LOXIMVI; assay: apoptotic fraction of cells (caspase-3 NucView488 positive); higher = more apoptosis; details: 72 h; 0.1 µM
The entries below come with measured apoptotic fraction of cells values attached.
I'd appreciate a reply containing only the number, no unit.

compound	apoptotic fraction of cells
CN(C)CCOc1ccc(-c2nc(-c3ccncc3)c(-c3ccc4c(c3)CC/C4=N\O)[nH]2)cc1	0.0607

Reported apoptotic fraction of cells ( CCCS(=O)(=O)Nc1ccc(F)c(C(=O)c2c[nH]c3ncc(Cl)cc23)c1F [PLX4720] ) = 0.0395

So, CCCS(=O)(=O)Nc1ccc(F)c(C(=O)c2c[nH]c3ncc(-c4ccc(Cl)cc4)cc23)c1F [Vemurafenib] ? Its apoptotic fraction of cells was 0.0438

Measured apoptotic fraction of cells of Cc1ccc(NC(=O)c2cccc(C(C)(C)C#N)c2)cc1Nc1ccc2ncn(C)c(=O)c2c1 [AZ628] : 0.0836

// apoptotic fraction of cells lookup, compound = Cn1cnc2c(F)c(Nc3ccc(Br)cc3Cl)c(C(=O)NOCCO)cc21 [Selumetinib] , result: 0.0445
